For each record, write down the corresponding cell viability.
- System: P12-Ichikawa
- PROCEDURE_DETAILS: cell viability relative to DMSO control; higher = less cytotoxic
- CONDITION_NOTES: RPMI 5 mM glucose + 10% FBS; 48 h; 0.0632 µM
Give just the numeric value; % need not be written.

Lookup: Item Cc1c(CCOc2ccc(C(=O)O)cc2)c2cc(Cl)ccc2n1C(c1ccccc1)c1ccccc1 : provide cell viability
Found: 108

Lookup: Hello, please tell me recorded cell viability for this one: CCCc1nc(C(C)(C)O)c(C(=O)O)n1Cc1ccc(-c2ccccc2-c2nn[nH]n2)cc1
Found: 116

Lookup: Provide only the value of recorded cell viability for CC(C)n1nc(-c2cc3cc(O)ccc3[nH]2)c2c(N)ncnc21
Found: 92.8

Lookup: Identify cell viability associated with the compound CCCCn1c(=O)n(Cc2ccccc2F)c(=O)c2nc(Cc3ccc(NC(C)=O)cc3)[nH]c21
Found: 94.5

Lookup: Given the compound COC1=CC2=NC=CC(=C2C=C1)OC3=CN=C(NC(=O)C/4=C(C)/N(CC(C)(C)O)N(C4=O)C5=CC=CC=C5)C=C3 , write its reported cell viability.
Found: 92.1

Lookup: Please give the documented cell viability of Cc1c(CN2CCN(C(=O)[C@H](C)O)CC2)sc2c(N3CCOCC3)nc(-c3cnc(N)nc3)nc12
Found: 75.1

Lookup: Let me know recorded cell viability for CC(=O)Oc1ccccc1C(=O)O , thanks.
Found: 101

Lookup: Output measured cell viability for this item: Cc1ccccc1C(C(=O)NC1CCCCC1)N(C(=O)Cn1ccnc1C)c1cccc(F)c1 (stereo unspecified)
Found: 105

Lookup: Give the measured cell viability for CO[C@H]1/C=C/O[C@@]2(C)Oc3c(C)c(O)c4c(O)c(c5c(nc6cc(C)ccn65)c4c3C2=O)NC(=O)/C(C)=C\C=C\[C@H](C)[C@H](O)[C@@H](C)[C@@H](O)[C@@H](C)[C@H](OC(C)=O)[C@@H]1C
Found: 114

Lookup: Could you please provide reported cell viability for COC1CCC(CC1)N(C(=O)C2CCC(C)CC2)C3=C(SC(=C3)\C4=C\CCCC4)C(O)=O (stereo unspecified) ? Thanks!
Found: 92.8

Lookup: Please report cell viability for the following compound: CCC[C@H](NC(=O)/C(C#N)=C/c1cccc(Br)n1)c1ccccc1
Found: 120

---

- System: SEM cells
- PROCEDURE_DETAILS: cell viability relative to DMSO control; higher = less cytotoxic
- CONDITION_NOTES: RPMI 5 mM glucose + 10% dialyzed FBS; 48 h; 15.4 µM
Lab note: cut-off is 20%. Strictly less in cell viability is TRUE. Exactly 20% or more is FALSE.

Lookup: Please check: cell viability for FC(F)(F)c1ccc(/C=C/c2nc(COc3ccc(CCCCn4ccnn4)cc3)co2)cc1 , strictly under 20% or not?
Found: FALSE

Lookup: hey, is cell viability for CCCCCOC(=O)NC\1=N\C(=O)N(\C=C1F)[C@@H]2O[C@H](C)[C@@H](O)[C@H]2O lower than 20% or not?
Found: FALSE

Lookup: Is cell viability of c1cncc(CN2CCC(n3ncc4c(N5CCOCC5)nc(-c5ccc6[nH]ccc6c5)nc43)CC2)c1 strictly below 20%?
Found: FALSE

Lookup: Does the reported cell viability of the following compound sit strictly below 20%? CC(C)(C)C(=O)Oc1ccc2c(c1)nc(NC(=O)c1cccc([N+](=O)[O-])c1)n2CCCO
Found: FALSE

Lookup: Input CC[C@H](CC#N)OC(=O)N[C@@H](C)c1cccc(NC(=O)Nc2ccc(-c3cnco3)c(OC)c2)c1 ; condition: cell viability strictly below 20%. Does it hold?
Found: FALSE

Lookup: Identify whether the compound CCCC1=NC(=C2[N]1NC(=N\C2=O)/C3=CC(=CC=C3OCC)[S+]([O-])(=O)N4CCN(CC)CC4)C records cell viability below 20%.
Found: TRUE

Lookup: Field: below-cutoff. Rule: recorded cell viability strictly less than 20%. Subject: C[C@]\12CC[C@H](O)CC1=C/CC3C2CC[C@@]\4(C)C3C\C=C4[N]5C=NC6=C5C=CC=C6 (stereo partly specified)
Found: FALSE

Lookup: Hi there! Is cell viability for C\C1=C\C(=O)OC2=C1C=CC(=C2)O below 20%, do you know?
Found: FALSE

Lookup: State whether 20% exceeds cell viability recorded for COc1cnc(N[S+](=O)([O-])c2ccc(N)cc2)nc1 .
Found: FALSE

Lookup: Answer whether the compound Cc1cc(OCCCc2c(C(=O)O)n(Cc3cccnc3)c3c(-c4c(COc5ccc(N6CCN([S+](C)(=O)[O-])CC6)cc5)nn(C)c4C)cccc23)cc(C)c1Cl has cell viability strictly less than 20%
Found: FALSE

Lookup: Here's an entry: COC1=CC2=NC=CC(=C2C=C1)OC3=CN=C(NC(=O)C/4=C(C)/N(CC(C)(C)O)N(C4=O)C5=CC=CC=C5)C=C3 . Is its cell viability below 20%?
Found: FALSE

Lookup: Dear colleague, could you confirm whether cell viability of CN(c1ncccc1CNc1nc(Nc2ccc3c(c2)CC(=O)N3)ncc1C(F)(F)F)[S+](C)(=O)[O-] falls below 20%? Thanks.
Found: TRUE

Lookup: cell viability strictly < 20% for this compound? CC(NC1=CC=CC=C1)C\2=C\C(=C/N3C(=O)\C=C(/N=C23)N4CCOCC4)C (stereo unspecified)
Found: FALSE

Lookup: Given the entry CC1(C)CC(=O)c2c(C(F)(F)F)nn(-c3ccc(C(N)=O)c(NC4CCC(O)CC4)c3)c2C1 (stereo unspecified) , would its reported cell viability be below 20%?
Found: TRUE

Lookup: Lab note: cell viability threshold 20%. Does this compound come in strictly under it? CC1(C)O[C@@H]2C[C@H]3[C@@H]4CCC5=CC(=O)C=C[C@]5(C)[C@@]4(F)[C@@H](O)C[C@]3(C)[C@]2(C(=O)CO)O1
Found: TRUE

---

- Test system: SEM cells
- PROCEDURE_DETAILS: cell viability relative to DMSO control; higher = less cytotoxic
- CONDITION_NOTES: RPMI 5 mM glucose + 10% dialyzed FBS; 48 h; 0.000781 µM
REPORTED_PROPERTY: cell viability

Lookup: Fill in cell viability for record COC1=CC=CC2=C1C(=NC(=N2)C3=CC=CS3)NN4C(=O)\C=C(C)/C4=O
Found: 87.3%

Lookup: Supply reported cell viability belonging to this molecule: C/C=C1\NC(=O)[C@H]2CSSCC/C=C\[C@H](CC(=O)N[C@H](C(C)C)C(=O)N2)OC(=O)[C@H](C(C)C)NC1=O
Found: 73%

Lookup: Respond only with cell viability recorded for COC1=C(N2CCNC(C)C2)C(=CC3=C1N(\C=C(C(O)=O)/C3=O)C4CC4)F (stereo not given)
Found: 73.7%

Lookup: Please report cell viability for the following molecule: NC[C@H]1CC[C@H](C(=O)O)CC1
Found: 56.4%

Lookup: Give recorded cell viability. C[C@]12CC[C@@H]3c4ccc(OC(=O)N(CCCl)CCCl)cc4CC[C@H]3[C@@H]1CC[C@@H]2OP(=O)([O-])[O-].[Na+].[Na+]
Found: 111%

---

- Tested on: SEM cells
- PROCEDURE_DETAILS: cell viability relative to DMSO control; higher = less cytotoxic
- CONDITION_NOTES: RPMI 5 mM glucose + 10% FBS; 48 h; 0.19 µM
REPORTED_PROPERTY: cell viability (%)
Write the answer as a number in %, unit excluded.

Lookup: Provide measured cell viability value, entry: COc1cc2c(cc1-c1c(C)noc1C)ncc1[nH]c(=O)n([C@H](C)c3ccccn3)c12
Found: 114

Lookup: Dear colleague, please send me the reported cell viability for Cc1cn2c(-c3cn[nH]c3)cnc2c(Nc2ccc(C(=O)N3CCNCC3)cc2F)n1 when you can.
Found: 114

Lookup: Give the measured cell viability for COC[C@H]1OC(=O)C2=COC3=C2[C@@]1(C)\C4=C(C5CCC(=O)[C@@]5(C)C[C@H]4OC(C)=O)/C3=O (some centres undefined)
Found: 102

Lookup: Indicate the recorded cell viability value for this molecule: COc1ccc(C[C@@H](C)[C@@H](C)Cc2ccc(OC)c(OC)c2)cc1OC
Found: 120

Lookup: Kindly indicate its recorded cell viability. Item: C[C@]12C[C@H](O)[C@H]3[C@@H](CC\C4=C\C(=O)\C=C/[C@]34C)[C@@H]1CC[C@]2(O)C(=O)CO
Found: 127

Lookup: Supply recorded cell viability for C\C1=C\C(=O)OC2=C1C=CC(=C2)O here.
Found: 110

Lookup: Identify cell viability associated with the molecule C[C@](O)(COc1ccc(C#N)cc1)C(=O)Nc1ccc(C#N)c(C(F)(F)F)c1
Found: 93

Lookup: Assign cell viability to the following record: CCC1(C)CC(=O)NC1=O (centres undefined)
Found: 106

Lookup: State, in one line, measured cell viability of CC1(C)CCC[C@]2(C)[C@H]3CC(=O)O[C@]3(C)CC[C@@H]12
Found: 115
